Molecular target: recombinant human 11β-HSD1 (Homo sapiens)
Sequence (P28845 whole entry): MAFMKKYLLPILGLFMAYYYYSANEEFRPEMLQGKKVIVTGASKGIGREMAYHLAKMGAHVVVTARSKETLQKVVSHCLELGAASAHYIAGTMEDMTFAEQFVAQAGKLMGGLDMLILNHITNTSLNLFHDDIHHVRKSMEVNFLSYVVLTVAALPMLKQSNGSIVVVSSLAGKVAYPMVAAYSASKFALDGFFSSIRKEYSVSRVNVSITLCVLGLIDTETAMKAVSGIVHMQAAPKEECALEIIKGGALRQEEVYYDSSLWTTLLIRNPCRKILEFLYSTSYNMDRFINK
Test: Enzyme activity assay on human 11β-HSD1 (HTRF)
Conditions: recombinant human 11β-HSD1, 5μM cortisone as substrate, 2 hours at 37° C.; read-out: humanIC50
MEASURED_ATTRIBUTE: IC50 (µM)

Please review the entries below; each comes with its answer.
[Q] For the compound shown here, Cn1ncc(C(=O)NC23CC4CC(CC(C4)C2)C3)c1Sc1ccccc1 [Compound A-2] , give the reported IC50.
[A] 0.27

[Q] Entry under review: Cn1ncc(C(=O)NC2C3CC4CC(C3)CC2C4)c1OC1CCCCC1 (stereo not shown) [Compound A-6] . Reported IC50?
[A] 0.0083

[P] Cn1cc(C(=O)NC2C3CC4CC(C3)CC2C4)c(OCc2ccccc2)n1 (stereo not shown) [Compound A-5]
[Q] Cn1ncc(C(=O)NC2C3CC4CC(C3)CC2C4)c1OCCc1ccccc1 (stereo not shown) [Compound A-7]
[R] Cn1ncc(C(=O)NC23CC4CC(CC(C4)C2)C3)c1Oc1ccccc1 [Compound A-3]
[S] Cn1ncc(C(=O)NC23CC4CC(CC(C4)C2)C3)c1OCc1ccccc1 [Compound A-1]
[T] Cn1ncc(C(=O)NC2C3CC4CC(C3)CC2C4)c1OCc1ccccc1 (stereo not shown) [Compound A-4]
[Q] Arrange these 5 compounds in increasing order of IC50. Response field: labels, in requested order.
[A] Q, T, S, R, P
(Q: 0.018 µM, T: 0.037 µM, S: 0.19 µM, R: 0.3 µM, P: 0.71 µM)
